# system_under_test: Eukaryotic elongation factor 2 kinase (Homo sapiens, UniProt O00418)
# Sequence (O00418 whole entry): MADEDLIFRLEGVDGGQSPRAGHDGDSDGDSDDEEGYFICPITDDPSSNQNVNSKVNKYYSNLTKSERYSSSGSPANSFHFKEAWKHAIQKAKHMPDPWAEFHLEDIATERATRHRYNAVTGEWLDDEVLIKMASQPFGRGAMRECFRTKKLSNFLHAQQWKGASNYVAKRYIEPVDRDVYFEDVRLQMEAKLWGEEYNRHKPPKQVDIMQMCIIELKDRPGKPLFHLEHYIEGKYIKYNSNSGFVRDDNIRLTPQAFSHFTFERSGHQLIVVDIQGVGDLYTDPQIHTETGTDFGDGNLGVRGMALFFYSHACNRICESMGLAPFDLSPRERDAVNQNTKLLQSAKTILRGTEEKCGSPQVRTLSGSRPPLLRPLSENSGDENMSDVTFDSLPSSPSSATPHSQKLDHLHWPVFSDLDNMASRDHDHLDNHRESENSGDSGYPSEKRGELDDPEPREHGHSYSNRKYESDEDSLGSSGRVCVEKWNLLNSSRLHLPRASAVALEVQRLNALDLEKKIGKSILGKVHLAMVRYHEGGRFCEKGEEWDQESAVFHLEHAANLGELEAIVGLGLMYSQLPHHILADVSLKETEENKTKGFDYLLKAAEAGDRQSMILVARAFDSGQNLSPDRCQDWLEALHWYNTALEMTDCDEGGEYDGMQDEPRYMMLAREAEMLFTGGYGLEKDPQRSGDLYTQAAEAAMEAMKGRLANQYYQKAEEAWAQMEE
# assay_method_text: Inhibition of recombinant human full length GST-tagged EEF2K expressed in Escherichia coli expression system using serine/threonine-24 peptide as substrate incubated for 60 mins in presence of ATP by Z'-LYTE assay
value_kind: IC50

// query Tell me measured IC50 for C[C@@H]1C[C@H]1C(=O)N1CCN(c2cnc(C#N)c(-c3cnn(C)c3)n2)C[C@H]1C please.
// result > 100 µM

----------
# system_under_test: PI3-kinase p110-delta/p85-alpha (Homo sapiens, UniProt O00329)
# Sequence (P27986 whole entry): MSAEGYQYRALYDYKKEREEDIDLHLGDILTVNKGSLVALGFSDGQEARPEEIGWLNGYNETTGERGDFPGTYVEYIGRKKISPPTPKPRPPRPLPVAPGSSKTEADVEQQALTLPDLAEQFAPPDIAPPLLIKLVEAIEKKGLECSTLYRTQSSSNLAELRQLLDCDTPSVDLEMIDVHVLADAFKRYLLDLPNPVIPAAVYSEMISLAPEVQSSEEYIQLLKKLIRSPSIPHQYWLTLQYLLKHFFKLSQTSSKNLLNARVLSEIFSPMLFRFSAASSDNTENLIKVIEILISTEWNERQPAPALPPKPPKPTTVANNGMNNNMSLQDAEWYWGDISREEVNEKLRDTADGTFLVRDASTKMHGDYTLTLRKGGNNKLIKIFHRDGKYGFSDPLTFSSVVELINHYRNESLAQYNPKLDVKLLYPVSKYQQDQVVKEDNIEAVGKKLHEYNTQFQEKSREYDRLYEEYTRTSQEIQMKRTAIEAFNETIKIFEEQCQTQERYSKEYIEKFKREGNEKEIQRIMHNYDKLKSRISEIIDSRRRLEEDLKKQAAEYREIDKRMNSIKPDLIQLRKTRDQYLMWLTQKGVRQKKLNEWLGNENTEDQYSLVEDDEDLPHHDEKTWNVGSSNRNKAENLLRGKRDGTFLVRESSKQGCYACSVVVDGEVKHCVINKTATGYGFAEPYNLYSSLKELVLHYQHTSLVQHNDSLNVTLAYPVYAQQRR
# Sequence (O00329 whole entry): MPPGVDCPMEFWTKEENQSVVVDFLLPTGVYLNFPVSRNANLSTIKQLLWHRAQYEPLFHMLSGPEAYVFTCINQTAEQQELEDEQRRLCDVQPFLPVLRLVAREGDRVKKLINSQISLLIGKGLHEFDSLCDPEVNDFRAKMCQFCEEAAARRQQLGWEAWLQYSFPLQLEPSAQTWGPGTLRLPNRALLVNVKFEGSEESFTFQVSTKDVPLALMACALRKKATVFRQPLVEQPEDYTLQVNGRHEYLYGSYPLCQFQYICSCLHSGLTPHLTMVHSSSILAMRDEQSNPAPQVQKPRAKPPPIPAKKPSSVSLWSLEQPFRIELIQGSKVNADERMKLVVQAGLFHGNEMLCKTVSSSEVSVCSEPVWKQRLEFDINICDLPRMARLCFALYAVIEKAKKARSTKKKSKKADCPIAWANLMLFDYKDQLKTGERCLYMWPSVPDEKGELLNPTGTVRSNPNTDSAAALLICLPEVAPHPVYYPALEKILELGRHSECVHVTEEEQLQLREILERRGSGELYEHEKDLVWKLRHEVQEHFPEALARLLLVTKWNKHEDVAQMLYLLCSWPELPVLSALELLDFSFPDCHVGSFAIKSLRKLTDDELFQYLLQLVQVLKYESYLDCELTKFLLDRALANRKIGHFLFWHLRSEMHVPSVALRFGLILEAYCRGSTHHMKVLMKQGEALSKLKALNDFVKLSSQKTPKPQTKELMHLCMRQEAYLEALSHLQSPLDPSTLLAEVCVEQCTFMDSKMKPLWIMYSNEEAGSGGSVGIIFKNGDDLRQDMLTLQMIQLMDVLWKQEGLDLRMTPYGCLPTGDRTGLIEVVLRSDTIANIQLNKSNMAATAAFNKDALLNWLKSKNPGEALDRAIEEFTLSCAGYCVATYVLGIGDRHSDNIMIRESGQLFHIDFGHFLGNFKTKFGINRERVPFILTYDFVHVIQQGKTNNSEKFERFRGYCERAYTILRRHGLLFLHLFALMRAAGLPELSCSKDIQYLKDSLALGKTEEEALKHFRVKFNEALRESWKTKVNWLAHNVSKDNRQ
# assay_method_text: Inhibition of His-tagged recombinant human PI3K p110delta/p85alpha expressed in baculovirus expression system using PIP2:PS lipid as substrate in presence of ATP after 1 hr by Adapta assay
value_kind: IC50
I'd appreciate it if you wrote the number followed by its unit.

// query Identify measured IC50 corresponding to C[C@@H]1C[C@H]1C(=O)N1CCN(c2cnc(C#N)c(-c3cnn(C)c3)n2)C[C@H]1C
// result 884 nM
